FYI, the data here is from patent US11274083B2.

- System: Glycine max
- test_protocol: Crop compatibility post-emergence, greenhouse pot test
- Type: in vivo
- condition_details: application rate 5 g/ha
readout: Glycine max (Efficacy in %)
Answers are plain numbers, in %.

Study these solved cases before continuing.
1. COC(=O)CCOC(=O)C(C)(C)Sc1cc(-n2c(=O)cc(C(F)(F)F)n(C)c2=O)c(F)cc1Cl | 20
2. CCCCC(Sc1cc(-n2c(=O)cc(C(F)(F)F)n(C)c2=O)c(F)cc1Cl)C(=O)OCCC(=O)OCc1ccccc1 (stereo not drawn) | 20
3. CCOC(=O)COC(=O)C(CC)Sc1cc(-n2c(=O)cc(C(F)(F)F)n(C)c2=O)c(F)cc1Cl (stereo not drawn) | 20
4. CNC(=O)CCOC(=O)C(C)Sc1cc(-n2c(=O)cc(C(F)(F)F)n(C)c2=O)c(F)cc1Cl (stereo not drawn) | 20

Batch of 2 compounds: report Glycine max (Efficacy in %) for each.
1. CC(Sc1cc(-n2c(=O)cc(C(F)(F)F)n(C)c2=O)c(F)cc1Cl)C(=O)OCC(=O)N(C)C (stereo not drawn)
2. CCC(Sc1cc(-n2c(=O)cc(C(F)(F)F)n(C)c2=O)c(F)cc1Cl)C(=O)OCCC(=O)OCc1ccccc1 (stereo not drawn)

10
20

---

I'd appreciate it if you could supply Polygonum convolvulus (Efficacy in %) values for the items below.
- System: Polygonum convolvulus
- test_protocol: Herbicidal action post-emergence, greenhouse pot test
- Format: in vivo
- condition_details: application rate 80 g/ha
One number for each entry, in %.

Study these solved cases before continuing.
1) CC(Sc1cc(-n2c(=O)cc(C(F)(F)F)n(C)c2=O)c(F)cc1Cl)C(=O)OCC1CCC(=O)N1 (stereo not shown) | 100
2) CC(C)NC(=O)COC(=O)C(C)Sc1cc(-n2c(=O)cc(C(F)(F)F)n(C)c2=O)c(F)cc1Cl (stereo not shown) | 100
3) COC(=O)C(C)OC(=O)C(C)Sc1cc(-n2c(=O)cc(C(F)(F)F)n(C)c2=O)c(F)cc1Cl (stereo not shown) | 100

Batch of 2 compounds: report Polygonum convolvulus (Efficacy in %) for each.
1. CC(Sc1cc(-n2c(=O)cc(C(F)(F)F)n(C)c2=O)c(F)cc1Cl)C(=O)OCCC(N)=O (stereo not shown)
2. COC(=O)COC(=O)CSc1cc(-n2c(=O)cc(C(F)(F)F)n(C)c2=O)c(F)cc1Cl

[100, 100]

Batch of 2 compounds: report Polygonum convolvulus (Efficacy in %) for each.
1. COC(=O)CC(CC(=O)OC)OC(=O)C(C)Sc1cc(-n2c(=O)cc(C(F)(F)F)n(C)c2=O)c(F)cc1Cl (stereo not shown)
2. CON(C)C(=O)COC(=O)C(C)Sc1cc(-n2c(=O)cc(C(F)(F)F)n(C)c2=O)c(F)cc1Cl (stereo not shown)

[100, 100]

---

I'd appreciate it if you could supply Triticum aestivum (Efficacy in %) values for the items below.
- Test system: Triticum aestivum
- test_protocol: Crop compatibility post-emergence, greenhouse pot test
- Assay type: in vivo
- condition_details: application rate 20 g/ha
- Source text: Seeds of mono- and dicotyledonous weed plants and crop plants were laid out in sandy loam soil in plastic or wood-fiber pots, covered with soil and grown under controlled growth conditions in a greenhouse. […] After the trial plants had stood for about 3 weeks in the greenhouse, under optimal growth conditions, the effect of the preparations was scored visually by comparison with untreated controls. […] Crop plant compatibilities were also scored correspondingly. […]
One number for each entry, in %.

Study these solved cases before continuing.
1. CCOC(=O)COC(=O)C(CC)Sc1cc(-n2c(=O)cc(C(F)(F)F)n(C)c2=O)c(F)cc1Cl (stereo not shown) | 10
2. COC(=O)C(C)(C)OC(=O)C(C)Sc1cc(-n2c(=O)cc(C(F)(F)F)n(C)c2=O)c(F)cc1Cl (stereo not shown) | 10
3. CC(Sc1cc(-n2c(=O)cc(C(F)(F)F)n(C)c2=O)c(F)cc1Cl)C(=O)OC1CNC(=O)C1 (stereo not shown) | 10

Batch of 2 molecules: report Triticum aestivum (Efficacy in %) for each.
1. CCOC(=O)CCOC(=O)C(C)Sc1cc(-n2c(=O)cc(C(F)(F)F)n(C)c2=O)c(F)cc1Cl (stereo not shown)
2. CCOC(=O)COC(=O)C(CC(C)C)Sc1cc(-n2c(=O)cc(C(F)(F)F)n(C)c2=O)c(F)cc1Cl (stereo not shown)

1. 10
2. 10

Batch of 2 molecules: report Triticum aestivum (Efficacy in %) for each.
1. CCOC(=O)CCOC(=O)C(CC(C)C)Sc1cc(-n2c(=O)c(C)c(C(F)(F)F)n(C)c2=O)c(F)cc1Cl (stereo not shown)
2. CCCCC(Sc1cc(-n2c(=O)cc(C(F)(F)F)n(C)c2=O)c(F)cc1Cl)C(=O)OCCC(=O)OCC (stereo not shown)

1: 20; 2: 20

Batch of 4 molecules: report Triticum aestivum (Efficacy in %) for each.
1. CCCCOC(=O)COC(=O)CSc1cc(-n2c(=O)cc(C(F)(F)F)n(C)c2=O)c(F)cc1Cl
2. CC(Sc1cc(-n2c(=O)cc(C(F)(F)F)n(C)c2=O)c(F)cc1Cl)C(=O)OC1C(=O)OCC1(C)C (stereo not shown)
3. COC(=O)C(C)OC(=O)C(C)Sc1cc(-n2c(=O)cc(C(F)(F)F)n(C)c2=O)c(F)cc1Cl (stereo not shown)
4. CCC(Sc1cc(-n2c(=O)cc(C(F)(F)F)n(C)c2=O)c(F)cc1Cl)C(=O)OCCC(=O)OCc1ccccc1 (stereo not shown)

1: 20; 2: 20; 3: 20; 4: 20

Batch of 2 molecules: report Triticum aestivum (Efficacy in %) for each.
1. CCOC(=O)CC(C)OC(=O)C(C)Sc1cc(-n2c(=O)cc(C(F)(F)F)n(C)c2=O)c(F)cc1Cl (stereo not shown)
2. COC(=O)CC(C)OC(=O)C(C)Sc1cc(-n2c(=O)cc(C(F)(F)F)n(C)c2=O)c(F)cc1Cl (stereo not shown)

[20, 20]
